From: ChEMBL document CHEMBL5576117

# Test system: Erythrocyte
# TEST PROTOCOL: Hemolytic activity in human erythrocytes at 50 ug/ml incubated for 1 hr by absorbance based analysis
# Type: toxicity, cell-based
# TEST CONDITIONS: dose 50 µg/ml
Where a SMILES comes first, the peptide text is derived from it. [ ]: non-standard residue; d: D form. Aib = CC(C)(N)C(=O)O
ASSAY METRIC: Activity

CC(=O)NC(C)(C)C(=O)N[C@@H](CC(N)=O)C(=O)N[C@@H](CC(C)C)C(=O)N[C@@H](CC(C)C)C(=O)NC(C)(C)C(=O)N1CCC[C@H]1C(=O)N[C@@H](CC(C)C)C(=O)N[C@@H](CC(C)C)C(=O)NC(C)(C)C(=O)N1CCC[C@H]1C(=O)N[C@@H](CC(C)C)C(=O)O (Ac-[Aib]NLL[Aib]PLL[Aib]PL-OH) : Toxic
CC[C@H](C)[C@H](NC(=O)[C@@H]1CCCN1C(=O)C(C)(C)NC(=O)[C@@H](NC(=O)[C@@H](NC(=O)[C@@H]1CCCN1C(=O)C(C)(C)NC(=O)[C@H](CC(C)C)NC(=O)[C@H](CC(C)C)NC(=O)[C@H](CC(N)=O)NC(=O)C(C)(C)NC(C)=O)[C@@H](C)CC)[C@@H](C)CC)C(=O)O (Ac-[Aib]NLL[Aib]PII[Aib]PI-OH) : Toxic
